These data points were gathered from patent US20250122306A1.

Exercise: for every item that follows, state its recorded FX conversion (% inhibition), 1000 nM antibody.
- ASSAY_SYSTEM: tissue factor reagent of the Tissue Factor Activity Assay Kit (Abcam #ab108906) (UniProt P13726 33-295, limits assumed)
- Sequence (P13726 33-295 limits assumed): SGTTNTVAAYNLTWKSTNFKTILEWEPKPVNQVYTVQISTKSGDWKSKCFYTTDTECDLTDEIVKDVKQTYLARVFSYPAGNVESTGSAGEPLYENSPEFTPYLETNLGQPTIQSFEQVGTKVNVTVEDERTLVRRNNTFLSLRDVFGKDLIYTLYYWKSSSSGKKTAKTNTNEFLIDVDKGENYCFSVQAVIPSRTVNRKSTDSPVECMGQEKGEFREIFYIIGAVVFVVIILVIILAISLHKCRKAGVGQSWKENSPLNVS
- ASSAY_SUMMARY: cell-based or functional assay

Endpoint output: FX conversion (% inhibition), 1000 nM antibody of SRP2901-E03 (antibody, V domains shown, humanized rabbit antibody, variable regions fused to human IGHG1 and IGKC; also called 2842-B01 HC3/LC2) VH: EVQLVESGGGLVQPGGSLRLSCAASGFSISSYDMSWVRQAPGKGLEWIGIIGSNGRTYYPDSVKGRFTISRDNSKNTVTLQMNSLRAEDTAVYYCARGLYDGTGNIWGQGTLVTVSS VL: ELVMTQSPPTLSLSPGERVTLSCRASQSVYGNNWLSWYQQKPGQAPRLLIYGASKLATSIPARFSGSGSGTQFTLTISSLQPEDFAVYYCQGTYYSGDWYFAFGQGTKVEIK . Value? -0.84%

Do the same for SRP2901-D03 (antibody, V domains shown, humanized rabbit antibody, variable regions fused to human IGHG1 and IGKC; also called 2842-B01 HC3/LC1) VH: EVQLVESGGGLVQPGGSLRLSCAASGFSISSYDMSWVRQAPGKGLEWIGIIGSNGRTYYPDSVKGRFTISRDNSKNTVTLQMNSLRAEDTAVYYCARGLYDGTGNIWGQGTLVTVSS VL: DLQMTQSPSSLSASVGDRVTITCRASQSVYGNNWLSWYQQKPGKAPKLLIYGASKLASGVPSRFSGSGSGTQFTLTISSLQPEDFATYYCQGTYYSGDWYFAFGQGTKVEIK please -1.6%

Do the same for SRP2901-B05 (antibody, V domains shown, humanized rabbit antibody, variable regions fused to human IGHG1 and IGKC; also called 2842-G04 HC2/LC2) VH: QVQVQESGPGLVKPPGTLSLTCAVSGFSLSYYGVSWVRQPPGKGLEWIGTIDSSGRTYYNPSLKSRVTISNDNAPNTVSLKLSSVTAADTAVYYCARDFYGWNSGALDIWGQGTLVTVSS VL: DLQLTQSPSTLSASVGDRVTITCRASQSVYSNKYLSWYQQKPGKAPKLLIYKASTLASGVPSRFSGSGSGTEFTLTISSLQPDDFATYYCAAAYSDDSDTAFGQGTKVEIK please 0.62%

Do the same for 2842-B01 HC1/LC2 (antibody, V domains shown, humanized rabbit antibody, variable regions fused to human IGHG1 and IGKC) VH: QVQVVESGGGLVKPGGSLRLSCAASGFSISSYDMSWIRQAPGKGLEWIGIIGSNGRTYYADSVKGRFTISRNTNENTVYLQMNSLRAEDTAVYYCARGLYDGTGNIWGQGTLVTVSS VL: ELVMTQSPPTLSLSPGERVTLSCRASQSVYGNNWLSWYQQKPGQAPRLLIYGASKLATSIPARFSGSGSGTQFTLTISSLQPEDFAVYYCQGTYYSGDWYFAFGQGTKVEIK please -0.99%

Do the same for 2842-B01 HC1/LC1 (antibody, V domains shown, humanized rabbit antibody, variable regions fused to human IGHG1 and IGKC) VH: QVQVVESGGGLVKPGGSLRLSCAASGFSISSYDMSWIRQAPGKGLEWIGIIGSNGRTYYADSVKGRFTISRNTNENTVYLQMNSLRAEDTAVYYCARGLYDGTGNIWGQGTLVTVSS VL: DLQMTQSPSSLSASVGDRVTITCRASQSVYGNNWLSWYQQKPGKAPKLLIYGASKLASGVPSRFSGSGSGTQFTLTISSLQPEDFATYYCQGTYYSGDWYFAFGQGTKVEIK please -0.45%

Do the same for SRP2901-F01 (antibody, V domains shown, humanized rabbit antibody, variable regions fused to human IGHG1 and IGKC; also called 2842-B01 HC1/LC3) VH: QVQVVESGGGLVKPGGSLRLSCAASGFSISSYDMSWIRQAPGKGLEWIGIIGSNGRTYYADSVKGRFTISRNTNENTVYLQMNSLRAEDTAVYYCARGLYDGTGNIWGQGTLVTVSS VL: DIQMTQSPSSLSASVGDRVTITCQASQSVYGNNWLSWYQQKPGKAPKLLIYGASKLASGVPSRFSGSGSGTDFTLTISSLQPEDFATYYCQGTYYSGDWYFAFGGGTKVEIK please 0.77%
